test: ATG_CRE_CIS: Attagene CIS-FACTORIAL HepG2 Assay for human cAMP Responsive Element (CRE) binding protein 3 (AID 2282926); conditions: HepG2 CRE cis-reporter, Attagene multiplexed mRNA; actives raise or lower the signal
Active and inactive are the calls of the source. Rule for the calls: active = hit-call score of the fitted dose curve at least 0.9, where 1 is the maximum; inactive = score below 0.9.
Write down the outcome that applies. Available outcomes: Yes = active, No = inactive

Example entries and their recorded answers appear below.
[
  {
    "compound": "NC(=O)C(F)(F)C(F)(F)C(F)(F)C(F)(F)F",
    "classification": "No"
  },
  {
    "compound": "Cc1ccc(S(=O)(=O)NCl)cc1",
    "classification": "No"
  },
  {
    "compound": "c1ccc(-c2ccccc2-c2ccccc2)cc1",
    "classification": "No"
  },
  {
    "compound": "CS(C)(=O)=O",
    "classification": "No"
  },
  {
    "compound": "FC(F)(F)C(F)(F)C(F)(F)C(F)(F)C(F)(F)C(F)(F)CCS",
    "classification": "No"
  },
  {
    "compound": "CCN(CC)c1ccc2c(C)cc(=O)oc2c1",
    "classification": "Yes"
  }
]

Problem: Which outcome was assigned to FC1CC(F)(F)C(F)(F)C1(F)F (stereo not drawn) in this test?
Result: No

Problem: Which outcome was assigned to O=P(O)(O)OCCC(F)(F)C(F)(F)C(F)(F)C(F)(F)C(F)(F)C(F)(F)F in this test?
Result: No

* * *

assay: CCTE_Padilla_ZF_Score.Living: CCTE's 144 Hour Post-fertilization zebrafish Assay Score for Viability, Padilla Lab (AID 2284410);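 note: larval death at 6 dpf judged by absent heartbeat or coagulation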
Active and inactive are the calls of the source. The calls were made as follows: active = hit-call score of the fitted dose curve at least 0.9, where 1 is the maximum; inactive = score below 0.9.
Write down the outcome that applies. Available outcomes: 1 (active), 0 (inactive)

Example entries and their recorded answers appear below.
[
  {
    "compound": "CCO[Si](CCC(F)(F)C(F)(F)C(F)(F)C(F)(F)C(F)(F)C(F)(F)F)(OCC)OCC",
    "classification": 0
  },
  {
    "compound": "CCCCCCCCC(F)(F)C(F)(F)C(F)(F)C(F)(F)C(F)(F)C(F)(F)F",
    "classification": 0
  },
  {
    "compound": "C=CC(=O)OCC(F)(F)C(F)(F)C(F)(F)C(F)(F)C(F)(F)C(F)(F)C(F)(F)F",
    "classification": 0
  }
]

Problem: Which outcome was assigned to FC(F)(F)C(F)(F)CNCC(F)(F)C(F)(F)F in this test?
Result: 0

Problem: Which outcome was assigned to O=C(O)C(F)(F)C(F)(F)C(F)(F)C(F)(F)F in this test?
Result: 0

Problem: Which outcome was assigned to FC(F)(F)C(F)(F)C(F)(F)C(F)(F)C(F)(F)CCI in this test?
Result: 0

Problem: Which outcome was assigned to O=C(O)C(F)(OC(F)(F)C(F)(OC(F)(F)C(F)(OC(F)(F)C(F)(F)C(F)(F)F)C(F)(F)F)C(F)(F)F)C(F)(F)F (stereo unspecified) in this test?
Result: 0

Problem: Which outcome was assigned to OCC(F)(F)C(F)(F)C(F)(F)C(F)F in this test?
Result: 0

Problem: Which outcome was assigned to OCC(F)(F)C(F)(F)C(F)(F)C(F)(F)C(F)(F)C(F)(F)F in this test?
Result: 1

Problem: Which outcome was assigned to O=S(=O)(O)C(F)(F)C(F)(F)C(F)(F)C(F)(F)C(F)(F)C(F)(F)C(F)(F)F in this test?
Result: 1

Problem: Which outcome was assigned to O=S(=O)(OCCOC(F)(F)F)C(F)(F)F in this test?
Result: 0
